# MIC annotations
test system: Staphylococcus aureus; experiment: Antibacterial activity against Staphylococcus aureus 42 in presence of 1% bovine pulmonary surfactant by CLSI method; assay type: functional; conditions: Staphylococcus aureus, 42, Pulmonary surfactant
Number in µg/mL, nothing else.

// below: answered compounds
The compound listed as CC(C)CCCCCCCC(=O)N[C@@H](Cc1c[nH]c2ccccc12)C(=O)N[C@H](CC(N)=O)C(=O)N[C@@H](CC(=O)O)C(=O)N[C@@H]1C(=O)NCC(=O)N[C@@H](CCCN)C(=O)N[C@@H](CC(=O)O)C(=O)N[C@H](C)C(=O)N[C@@H](CC(=O)O)C(=O)NCC(=O)N[C@H](CC(N)=O)C(=O)N[C@@H]([C@H](C)CC(=O)O)C(=O)N[C@@H](CC(=O)c2ccccc2N)C(=O)O[C@H]1C shows MIC equal to 16

The compound listed as CC(C)CCCCCCCC(=O)N[C@@H](Cc1c[nH]c2ccccc12)C(=O)N[C@H](CC(N)=O)C(=O)N[C@@H](CC(=O)O)C(=O)N[C@@H]1C(=O)NCC(=O)N[C@@H](CCCN)C(=O)N[C@@H](CC(=O)O)C(=O)N[C@H](C)C(=O)N[C@@H](CC(=O)O)C(=O)NCC(=O)N[C@H](CO)C(=O)N[C@@H]([C@H](C)CC(=O)O)C(=O)N[C@@H](Cc2c[nH]c3ccccc23)C(=O)O[C@H]1C shows MIC equal to 32

The compound listed as CC[C@H](C)[C@@H]1NC(=O)[C@H]([C@H](C)CC(=O)O)NC(=O)[C@@H](CC(N)=O)NC(=O)CNC(=O)[C@H]([C@H](OC)C(=O)O)NC(=O)[C@@H](CC(N)=O)NC(=O)[C@H](CC(=O)O)NC(=O)[C@H](C)NC(=O)CN(C)C(=O)[C@@H](NC(=O)[C@@H](NC(=O)[C@@H](CCC(=O)O)NC(=O)[C@H](Cc2c[nH]c3ccccc23)NC(=O)CCCCCCCC(C)C)[C@H](O)C(N)=O)[C@H](C)OC1=O shows MIC equal to 64

More entries:
The compound listed as CC(C)CCCCCCCC(=O)N[C@@H](Cc1c[nH]c2ccccc12)C(=O)N[C@H](CC(N)=O)C(=O)N[C@@H](CC(=O)O)C(=O)N[C@@H]1C(=O)NCC(=O)N[C@@H](CCCN)C(=O)N[C@@H](CC(=O)O)C(=O)N[C@H](C)C(=O)N[C@@H](CC(=O)O)C(=O)NCC(=O)N[C@H](CO)C(=O)N[C@@H](CCC(=O)O)C(=O)N[C@@H](CC(=O)c2ccccc2N)C(=O)O[C@H]1C shows MIC equal to 16
